The measured values listed here are drawn from the NIST ThermoML archive (doi:10.1016/j.jct.2013.05.031).

conditions: 373 K; 101.33 kPa; Liquid; Capillary tube (Ostwald / Ubbelohde) method
measured.quantity: viscosity (mPa·s)
Number only, in mPa·s; omit the unit.

Form: compound = CCCCCCCC[N+](CC)(CC)CC.O=S(=O)([N-]S(=O)(=O)C(F)(F)F)C(F)(F)F [triethyloctylammonium bis[(trifluoromethyl)sulfonyl]imide] ; viscosity = 12.05

Form: compound = CCCCCCCCCCCC[N+](CC)(CC)CC.O=S(=O)([N-]S(=O)(=O)C(F)(F)F)C(F)(F)F ; viscosity = 14.2

Form: compound = CCCCCC[N+](CC)(CC)CC.O=S(=O)([N-]S(=O)(=O)C(F)(F)F)C(F)(F)F [triethylhexylammonium bis((trifluoromethyl)sulfonyl)imide] ; viscosity = 10.86

Form: compound = CCCCC[N+](CC)(CC)CC.O=S(=O)([N-]S(=O)(=O)C(F)(F)F)C(F)(F)F [triethylpentylammonium bis(trifluoromethylsulfonyl)imide] ; viscosity = 10.17

* * *

conditions: 338 K; 101.33 kPa; Liquid; Capillary tube (Ostwald / Ubbelohde) method
± gives the expanded uncertainty stated by the source.
measured.quantity: viscosity
Provide the measurement as a number trailed by its unit.

Form: compound = CCCCCCCC[N+](CC)(CC)CC.O=S(=O)([N-]S(=O)(=O)C(F)(F)F)C(F)(F)F [triethyloctylammonium bis[(trifluoromethyl)sulfonyl]imide] ; viscosity = 33.2 ± 1.8 mPa·s

Form: compound = CCCCC[N+](CC)(CC)CC.O=S(=O)([N-]S(=O)(=O)C(F)(F)F)C(F)(F)F [triethylpentylammonium bis(trifluoromethylsulfonyl)imide] ; viscosity = 26.57 ± 1.4 mPa·s

Form: compound = CCCCCCCCCCCC[N+](CC)(CC)CC.O=S(=O)([N-]S(=O)(=O)C(F)(F)F)C(F)(F)F ; viscosity = 41.48 ± 2.3 mPa·s

Form: compound = CCCCCC[N+](CC)(CC)CC.O=S(=O)([N-]S(=O)(=O)C(F)(F)F)C(F)(F)F [triethylhexylammonium bis((trifluoromethyl)sulfonyl)imide] ; viscosity = 28.94 ± 1.6 mPa·s

* * *

conditions: 323 K; 101.33 kPa; Liquid; Pycnometric method
measured.quantity: mass density (kg/m3)
Number only, in kg/m3; omit the unit.

Form: compound = CCCCC[N+](CC)(CC)CC.O=S(=O)([N-]S(=O)(=O)C(F)(F)F)C(F)(F)F [triethylpentylammonium bis(trifluoromethylsulfonyl)imide] ; mass density = 1301

Form: compound = CCCCCCCCCCCC[N+](CC)(CC)CC.O=S(=O)([N-]S(=O)(=O)C(F)(F)F)C(F)(F)F ; mass density = 1171.6

Form: compound = CCCCCCCC[N+](CC)(CC)CC.O=S(=O)([N-]S(=O)(=O)C(F)(F)F)C(F)(F)F [triethyloctylammonium bis[(trifluoromethyl)sulfonyl]imide] ; mass density = 1231.3

Form: compound = CCCCCC[N+](CC)(CC)CC.O=S(=O)([N-]S(=O)(=O)C(F)(F)F)C(F)(F)F [triethylhexylammonium bis((trifluoromethyl)sulfonyl)imide] ; mass density = 1271.3

* * *

settings: 313 K, Capillary rise
measured.quantity: surface tension liquid-gas (mN/m)
Number only, in mN/m; omit the unit.

Form: molecule = CCCCCCCCCCCC[N+](CC)(CC)CC.O=S(=O)([N-]S(=O)(=O)C(F)(F)F)C(F)(F)F ; surface tension liquid-gas = 30.3

Form: molecule = CCCCC[N+](CC)(CC)CC.O=S(=O)([N-]S(=O)(=O)C(F)(F)F)C(F)(F)F [triethylpentylammonium bis(trifluoromethylsulfonyl)imide] ; surface tension liquid-gas = 34.7

Form: molecule = CCCCCCCC[N+](CC)(CC)CC.O=S(=O)([N-]S(=O)(=O)C(F)(F)F)C(F)(F)F [triethyloctylammonium bis[(trifluoromethyl)sulfonyl]imide] ; surface tension liquid-gas = 31.8

Form: molecule = CCCCCC[N+](CC)(CC)CC.O=S(=O)([N-]S(=O)(=O)C(F)(F)F)C(F)(F)F [triethylhexylammonium bis((trifluoromethyl)sulfonyl)imide] ; surface tension liquid-gas = 32.9
